- assay-procedure: Cytotoxicity in cultured  (B16)
- Type: cell-based, human
- measurement-parameters: human; B16 cells; compound at 1.77×10^-2 M, even after 3 days; read-out: cells killed
observable: cytotoxicity at 72 h, 17700 µM

Request the reported cytotoxicity at 72 h, 17700 µM associated with NC(Cc1ccc(B(O)O)cc1)C(=O)NC(CO)CO (stereo not shown) [化合物(1)]
< 50%
